- target_system: T1, 1xMBD-GFP (UniProt Q9Z2E2 1-75)
- T1 sequence: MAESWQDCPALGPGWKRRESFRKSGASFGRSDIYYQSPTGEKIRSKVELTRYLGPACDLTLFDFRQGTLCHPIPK
- test: SPR
Quick rule for you: Kd under 500 nM gets t, anything else gets f.

binder: m_o_o*/m_m_m (dsDNA, strand 1 5mC9; strand 2 5mC5,5mC12,5mC17) DNA 1: GTAGTTTGCGGTCCGCTGCCCGACC DNA 2: GGGTCGGGCAGCGGACCGCAAA
label_class: f
//
binder: o_o_o_m/m_m_o_o (dsDNA, strand 1 5mC23; strand 2 5mC17,5mC21) DNA 1: GAAGTCAACAGGACGGACGCCGCGCAA DNA 2: CTCTTTCTTTGCGCGGCGTCCGTCCTGTTGACTTCCTCT
label_class: f
//
binder: o_m_m/m_o_m (dsDNA, strand 1 5mC10,5mC17; strand 2 5mC5,5mC17) DNA 1: TTTGCGGTCCGCTGCCCGACCC DNA 2: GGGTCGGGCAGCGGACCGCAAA
label_class: t
//
binder: o_m_o/m_m_m (dsDNA, strand 1 5mC10; strand 2 5mC5,5mC12,5mC17) DNA 1: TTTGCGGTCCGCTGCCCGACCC DNA 2: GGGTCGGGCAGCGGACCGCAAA
label_class: t
//
binder: o_o_o_m/o_o_m_o (dsDNA, strand 1 5mC23; strand 2 5mC14) DNA 1: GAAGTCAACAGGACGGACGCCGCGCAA DNA 2: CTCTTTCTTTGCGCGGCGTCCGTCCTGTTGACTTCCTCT
label_class: f
//
binder: o_o_m/m_o_m (dsDNA, strand 1 5mC17; strand 2 5mC5,5mC17) DNA 1: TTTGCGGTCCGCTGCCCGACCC DNA 2: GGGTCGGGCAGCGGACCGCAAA
label_class: t
